Molecular target: T1, cMet-Fc fusion protein (extracellular domain of the cMet receptor expressed as an Fc-fusion protein) (human, UniProt P08581 25-932)
T1 construct: extracellular domain; also called soluble cMet-Fc-fusion protein; soluble cMet receptor; not shown: Fc part
T1 sequence (P08581 25-932): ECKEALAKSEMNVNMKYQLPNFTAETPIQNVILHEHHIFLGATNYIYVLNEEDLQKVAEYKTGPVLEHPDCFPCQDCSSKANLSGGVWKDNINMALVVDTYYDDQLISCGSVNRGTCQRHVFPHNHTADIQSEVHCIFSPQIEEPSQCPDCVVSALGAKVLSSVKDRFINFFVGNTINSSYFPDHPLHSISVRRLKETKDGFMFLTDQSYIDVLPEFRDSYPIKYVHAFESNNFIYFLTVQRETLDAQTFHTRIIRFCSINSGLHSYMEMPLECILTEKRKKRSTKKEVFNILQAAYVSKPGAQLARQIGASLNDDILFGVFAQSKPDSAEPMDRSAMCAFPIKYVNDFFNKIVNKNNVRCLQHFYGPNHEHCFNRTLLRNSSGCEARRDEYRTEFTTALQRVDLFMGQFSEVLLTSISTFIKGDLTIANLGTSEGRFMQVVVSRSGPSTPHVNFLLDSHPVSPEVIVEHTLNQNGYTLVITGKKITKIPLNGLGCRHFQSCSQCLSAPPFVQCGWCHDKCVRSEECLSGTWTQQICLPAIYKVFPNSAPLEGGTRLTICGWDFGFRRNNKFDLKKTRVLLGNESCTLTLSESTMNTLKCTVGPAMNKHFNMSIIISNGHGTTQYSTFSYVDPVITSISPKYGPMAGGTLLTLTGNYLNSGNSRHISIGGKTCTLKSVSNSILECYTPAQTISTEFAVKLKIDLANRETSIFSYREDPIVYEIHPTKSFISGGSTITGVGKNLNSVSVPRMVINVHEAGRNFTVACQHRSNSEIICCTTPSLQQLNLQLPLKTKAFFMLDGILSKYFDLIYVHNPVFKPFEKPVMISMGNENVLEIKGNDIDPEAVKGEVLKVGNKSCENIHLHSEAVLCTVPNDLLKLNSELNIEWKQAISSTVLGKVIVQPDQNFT
Assay: phage ELISA on cMet-Fc, competitor HGF 100 ng/mL
% of binding in the absence of HGF under 80% gets yes (1), anything at or over 80% gets no (0).

Query: # check: % of binding in the absence of HGF < 80% for AGFWDCGWMMQDCHMHGT [470-C02 peptide-displaying phage (SEQ ID NO: 045)]
Result: no (0)

Query: # check: % of binding in the absence of HGF < 80% for GDHRKCEISAKTHEVTCYDNDP [545-F04 peptide-displaying phage (SEQ ID NO: 402)]
Result: no (0)

Query: # check: % of binding in the absence of HGF < 80% for AGKQWCVVWEETCDQLGT [465-F10 peptide-displaying phage (SEQ ID NO: 039)]
Result: yes (1)

Query: # check: % of binding in the absence of HGF < 80% for GSRFHCWQGDLMQTYCMPMAP [452-A03 peptide-displaying phage (SEQ ID NO: 376)]
Result: no (0)

Query: # check: % of binding in the absence of HGF < 80% for GDYRMCQISDMWGNYECSSDDP [548-G05 peptide-displaying phage (SEQ ID NO: 400)]
Result: no (0)

Query: # check: % of binding in the absence of HGF < 80% for AGDWICHGPPMFECEWVGT [547-H07 peptide-displaying phage (SEQ ID NO: 058)]
Result: yes (1)
